System: MDA-N
experiment: NCI tumour cell line growth inhibition, 48 h
Calls of active or inactive are those of the source. No stated cut-off is given here; in the data, active = GI50 up to about 1.1 µM and inactive = higher.
quantity name: GI50

1. Nc1nc(NCc2ccccc2)cc(NCc2ccccc2)n1	1.14 µM (inactive)
2. O=C(Cn1c(=O)ccn(C2OC(CO)C(O)C2F)c1=O)c1ccc(F)cc1 (stereo unspecified)	> 100 µM (inactive)
3. COc1cc(C(c2ccc3c(c2)OCO3)N2C(=O)CCC2C(=O)O)cc(OC)c1OC (stereo unspecified)	> 100 µM (inactive)
4. Brc1c2c(c(Br)c3nsnc13)N=S=N2	26.5 µM (inactive)
5. CC1(C)C2CC1C(/C=N\OCC(=O)O)=CC2=O (stereo unspecified)	> 100 µM (inactive)
6. CCn1c(SCC(=O)NNC(=S)Nc2ccc([N+](=O)[O-])cc2)nc2ccccc2c1=O	> 100 µM (inactive)

====

Test system: IGROV-1
experiment: NCI tumour cell line growth inhibition, 48 h
Calls of active or inactive are those of the source. No stated cut-off is given here; in the data, active = GI50 up to about 1.1 µM and inactive = higher.
Listing of entries alongside the reported GI50.
quantity name: GI50

1. CN1C2CCC1CC(CCOC(c1ccc(F)cc1)c1ccc(F)cc1)C2 (stereo not given)	17.3 µM (inactive)
2. CC(=O)Oc1ccc2c(c1)O/C(=C\c1ccc(N(C)C)cc1)C2=O	> 100 µM (inactive)
3. CC(=O)OC1CCC2(C)C(=CC(C3C=C4CC(OC(C)=O)CCC4(C)C4=C3C3CC5OC6(CCC(C)CO6)C(C)C5C3(C)CC4)C3=C2CCC2(C)C3CC3OC4(CCC(C)CO4)C(C)C32)C1 (stereo not given)	11.5 µM (inactive)
4. O=C1N/C(=N/N=C\C(O)C(O)C(O)C(O)CO)N/C1=C/c1ccc(Cl)cc1 (stereo not given)	> 100 µM (inactive)
5. COC(=O)C1(NC(=O)C(CC(=O)OCc2ccccc2)NC(=O)OCc2ccccc2)CCCCCC1 (stereo not given)	37.6 µM (inactive)

====

Tested on: U-251
experiment: NCI tumour cell line growth inhibition, 48 h
Calls of active or inactive are those of the source. Cut-off read from the data, not from the text of the source: active = GI50 up to about 1.1 µM and inactive = higher.
Possible outcomes: true (1) = active, false (0) = inactive

1. CCC(CCCC[C@@H]1CC[C@H]2CC(=O)C[C@@H]12)OC (stereo not given in full)	false (0)
2. NC(CP(=O)(O)O)C(=O)O (stereo not given)	false (0)
3. CCOC(=O)/C=C/c1ccccn1	false (0)
4. O=c1c2ccccc2nc2n1C(c1ccc([N+](=O)[O-])cc1)C2(c1ccccc1)c1ccccc1 (stereo not given)	false (0)
5. CCn1c(SCC(=O)NNC(=S)Nc2ccc([N+](=O)[O-])cc2)nc2ccccc2c1=O	false (0)
6. O=C1NC(=O)C(c2c[nH]c3cc(Br)ccc23)=C1c1cnc[nH]1	false (0)
7. COC1(O)c2cccc(Cl)c2C(=O)N1C1(C(N)=O)CCCCC1 (stereo not given)	false (0)
8. N#Cc1c(N2CCCC2)ncn(-c2ccccc2)c1=S	false (0)
9. COc1cc([C@@H]2c3cc4c(cc3[C@@H](OC3OC5CO[C@@H](c6cccs6)OC5C(O)C3O)[C@H]3COC(=O)[C@H]23)OCO4)cc(OC)c1O (stereo not given in full)	true (1)
10. O=C(Cn1c(=O)ccn(C2OC(CO)C(O)C2F)c1=O)c1ccc(F)cc1 (stereo not given)	false (0)

====

Tested on: LOX IMVI
experiment: NCI tumour cell line growth inhibition, 48 h
Activity calls are given as the source filed them. No stated cut-off is given here; in the data, active = GI50 up to about 1.1 µM and inactive = higher.
quantity name: GI50

1) CCCCCCCCCCNCCSSCc1ccc(Cl)cc1	1.92 µM (inactive)
2) C#CCOC(=O)c1ccccc1O	> 100 µM (inactive)
3) COc1cc(C=O)c(-c2cc(OC)c(OC)cc2C=O)cc1OC	13.7 µM (inactive)

====

Test system: SK-MEL-28
experiment: NCI tumour cell line growth inhibition, 48 h
The source made the active and inactive calls. No stated cut-off is given here; in the data, active = GI50 up to about 1.1 µM and inactive = higher.
Possible outcomes: active, inactive

1. Cn1c2ccccc2n2c3ncccc3c(=S)c(C#N)c12	inactive
2. COC(=O)Oc1nn(C(=O)OC)c(=O)c2ccccc12	inactive
3. O=C1NC(N2CCOCC2)=N/C1=C\c1ccc(Cl)cc1	inactive
4. COc1cc(CNc2nc3ccc(C(F)(F)F)cc3nc2-c2ccccc2)cc(OC)c1OC	inactive
5. COc1ccc(/C=C2\CN(C)C/C(=C\c3ccc(OC)c(OC)c3OC)C2=O)c(OC)c1OC	active
6. CC(=O)OC1CCC2(C)C(=CC(C3C=C4CC(OC(C)=O)CCC4(C)C4=C3C3CC5OC6(CCC(C)CO6)C(C)C5C3(C)CC4)C3=C2CCC2(C)C3CC3OC4(CCC(C)CO4)C(C)C32)C1 (stereo not drawn)	inactive
7. C=C1C(=O)O[C@@H]2/C=C(/C)[C@@H](OC(C)=O)C/C=C(\C)C(O)[C@@H](OC(=O)/C(C)=C\C)C12 (stereo partly drawn)	inactive
8. Cc1ccc2c(c1)CN(C(=O)CCC(=O)OCc1ccccc1)c1ccc(C)cc1CN2C(=O)CCC(=O)OCc1ccccc1	inactive

====

Tested on: HCT-15
experiment: NCI tumour cell line growth inhibition, 48 h
quantity name: GI50 (µM)

1) O=C1CCc2nc3ncccc3cc2C1	96.4
2) CN1C2CCC1CC(CCOC(c1ccc(F)cc1)c1ccc(F)cc1)C2 (stereo unspecified)	16.9
3) C=C(c1ccccc1)[C@@]1(O)CC[C@@H]1N(CC#N)Cc1ccccc1	18.7

====

Test system: A498
experiment: NCI tumour cell line growth inhibition, 48 h
Active and inactive are the calls of the source. Cut-off read from the data, not from the text of the source: active = GI50 up to about 1.1 µM and inactive = higher.
Possible outcomes: active, inactive

1. CN1CCN(Cc2ccccc2)CC1CC#N (centres undefined)	inactive
2. CC(=O)OCC1OC(N2C(c3ccccc3)=CC(c3ccco3)C(C#N)=C2S)C(OC(C)=O)C(OC(C)=O)C1OC(C)=O (centres undefined)	inactive
3. NC(=O)c1ncn2c(=O)n(CCCl)nnc12 [MITOZOLOMIDE]	inactive
4. CCOc1ccc(NC(=O)C(=O)CC(=O)C2=C(C)Nc3ccccc3S2)cc1	inactive
5. c1ccc2c(c1)Nc1ccccc1[P+]21c2ccccc2Nc2ccccc21	active
6. COc1cc([C@@H]2c3cc4c(cc3[C@@H](OC3OC5CO[C@@H](c6cccs6)OC5C(O)C3O)[C@H]3COC(=O)[C@H]23)OCO4)cc(OC)c1O (some centres undefined)	active
7. C=CCCCCNC(=O)C[C@@H]1C2=C(CC[C@H]1O[Si](C)(C)C(C)(C)C)N1C(=O)CCC/C=C\C1C2 (some centres undefined)	inactive
8. O=C(O)C(SC(=S)c1ccc(C(=S)SC(C(=O)O)c2ccccc2)cc1)c1ccccc1 (centres undefined)	inactive
9. CC(=O)N1CC(C)(C)c2c1cc(C)c(O)c2C	inactive

====

Listing of entries alongside the reported GI50.
Tested on: M19-MEL
experiment: NCI tumour cell line growth inhibition, 48 h
Calls of active or inactive are those of the source. Cut-off read from the data, not from the text of the source: active = GI50 up to about 1.1 µM and inactive = higher.
quantity name: GI50

1. CC1SC2=NC3=C(c4ccccc4C3=O)C(c3ccccc3Cl)N2C1=O (stereo not given)	> 100 µM (inactive)
2. COc1ccc(C2=C(Cl)c3cc(OC)c(OC)cc3C2Cl)cc1OC (stereo not given)	17.3 µM (inactive)
3. CC(=O)O[C@H]1CCC2[C@@H]3CCC4Nc5c(cnn5-c5ccccc5)C[C@]4(C)C3CC[C@@]21C (stereo not given in full)	11.7 µM (inactive)
4. CCc1ccccc1-n1c2nc(=O)n(C)c(=O)c-2nc2ccccc21	1.85 µM (inactive)
5. COC(=O)c1c2c(c(-c3ccccc3)c3c1-c1nc(Cl)ccc1CC3)CCc1ccc(Cl)nc1-2	> 100 µM (inactive)
6. O=[N+]([O-])CCc1cccc([N+](=O)[O-])c1	> 100 µM (inactive)
7. CC(=O)N(N=O)c1ccc(N(N=O)C(C)=O)cc1	> 100 µM (inactive)
8. Cc1nc(Nc2ccccc2)sc1C(=O)CC(=O)C(=O)Nc1c(C(C)C)cccc1C(C)C	> 100 µM (inactive)
9. CC(=O)OCC1OC(n2c(=O)n(-c3ccccc3)c(=O)c3ccccc32)C(OC(C)=O)C(OC(C)=O)C1OC(C)=O (stereo not given)	> 100 µM (inactive)
10. O=C1N/C(=C\[N+](=O)[O-])c2ccccc21	> 100 µM (inactive)

====

Test system: HCC 2998
experiment: NCI tumour cell line growth inhibition, 48 h
Activity calls are given as the source filed them. No stated cut-off is given here; in the data, active = GI50 up to about 1.1 µM and inactive = higher.
quantity name: GI50

1) OCC(S)CS.[Bi] (stereo unspecified)	13.6 µM (inactive)
2) C1=CCN(c2ccccc2)CC1	49.9 µM (inactive)
3) O=C(Cc1ccc(Cl)c(Cl)c1)NCCCN1CCN(CCCN2CCCCC2)CC1	2.89 µM (inactive)
4) CCOC(=O)c1cc2c(C(=O)c3ccc([N+](=O)[O-])cc3)c(C(C)=O)ccc2[nH]1	> 100 µM (inactive)
5) Cc1cc2[nH]c3c(C#N)c(-c4ccccc4)c(/C=N/c4ccc(F)cc4)c(=O)n3c2cc1C	> 100 µM (inactive)
6) CCOC1C(Br)Cn2c(=O)c3cc4ccccc4cc3c(=O)n2C1C (stereo unspecified)	50.6 µM (inactive)
7) Nc1ccc(S(=O)(=O)c2ccc(NCN3C(=O)NC(=O)C(=O)C3=O)cc2)cc1	> 100 µM (inactive)
8) O=C1[C@H]2ON(c3ccccc3)C(c3ccccc3F)[C@H]2C(=O)N1c1ccc(Cc2ccc(N3C(=O)[C@@H]4ON(c5ccccc5)C(c5ccccc5F)[C@@H]4C3=O)cc2)cc1 (stereo partly specified)	> 100 µM (inactive)
9) O=C(O[C@H]1[C@@H]2C=CO[C@@H](OC3OC(CO)C(O)C(O)C3O)[C@@H]2[C@@]2(CO)O[C@@H]12)c1ccc(O)c(O)c1 (stereo partly specified)	> 100 µM (inactive)
10) CCCCCC(C)C[C@H]1CO[C@H](c2ccc[nH]2)N[C@H]1C(=O)OC (stereo partly specified)	> 100 µM (inactive)
11) CCn1c2ccc(O)c(C(=O)OC)c2c2cc3ccccc3c(O)c21	22.2 µM (inactive)
12) CCC(=O)OCc1ccc2oc(=O)c(C(=O)Oc3cncc(Cl)c3)cc2c1	35.6 µM (inactive)
13) C=C=C(Sc1ccccc1)C(C)(C)OC(C)=O	20.9 µM (inactive)
14) CN(CCc1ccc(Cl)c(Cl)c1)CCN(C)CCN1CCCC1	1.96 µM (inactive)
15) O=C(O)c1cccc2cccc(-c3cccc4cccc(C(=O)O)c34)c12	> 100 µM (inactive)
16) O=S1(=O)c2ccccc2NC(c2ccc3ccccc3c2)CC1c1ccccc1F (stereo unspecified)	> 100 µM (inactive)
17) COC(O)C(=O)c1c2c(cc3c1CC1(Cc4cc5c(cc4C1)CCC5)C3)CCC2 (stereo unspecified)	23.6 µM (inactive)
18) COc1cc(Nc2ccc3c(c2)CCC3)nc(OC)n1	29.7 µM (inactive)
19) COc1ccc(Nc2cnc3cc(N)ccc3n2)cc1OC	29.2 µM (inactive)
20) CN1CCN(Cc2ccccc2)CC1CC#N (stereo unspecified)	> 100 µM (inactive)
21) CSC(SC)=C1C(=O)N(c2ccccc2)N=C1C	46.6 µM (inactive)
